Each record here notes measured MC4R selectivity vs MC3R.
- Assayed system: human MC3R (Homo sapiens, UniProt P41968)
- Construct: expressed in transfected cells; host or cells: HEK-293 cells stably expressing the GScAMP22F split-luciferase cAMP sensor (parent reporter line from Promega); MC3R clone generated in-house, G418 selection
- Sequence (P41968 whole entry): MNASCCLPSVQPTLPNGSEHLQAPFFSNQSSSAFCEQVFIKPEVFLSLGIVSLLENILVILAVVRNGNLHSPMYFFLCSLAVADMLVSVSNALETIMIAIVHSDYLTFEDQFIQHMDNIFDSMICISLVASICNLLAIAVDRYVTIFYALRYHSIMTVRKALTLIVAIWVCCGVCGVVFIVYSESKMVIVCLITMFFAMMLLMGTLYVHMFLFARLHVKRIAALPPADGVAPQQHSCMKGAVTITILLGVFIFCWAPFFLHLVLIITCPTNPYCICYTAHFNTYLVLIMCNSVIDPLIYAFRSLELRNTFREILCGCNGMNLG
- Protocol notes: split-luciferase cAMP sensor assay, agonist mode (measurement window 1), hMC3R
- Type: cell-based
- Protocol conditions: MC4R versus MC3R
Positions of bridges follow the written chain, without caps; N, C: chain ends. Non-standard residues stand in square brackets, D forms with d. Residues, ends and D or L forms follow the SMILES beside them. Aib = CC(C)(N)C(=O)O

# count of solved cases: 3
Annotate the molecule COc1ccc(C[C@H]2NC(=O)[C@H](CCCNC(=N)N)NC(=O)C(C)(C)NC(=O)[C@@H](NC(=O)[C@H](CCCNC(=N)N)NC(C)=O)CSSC[C@@H](C(N)=O)NC(=O)[C@H](Cc3ccccc3)NC(=O)[C@H](CCCNC(=N)N)NC2=O)cc1 [CTX-1298] (Ac-RC[Aib]R[dY](Me)RFC-NH2; disulfide 2-8 (inferred)) with its measured MC4R selectivity vs MC3R. 0.93

Annotate the molecule `CC1(C)NC(=O)CSC[C@@H](C(N)=O)NC(=O)[C@H](Cc2c[nH]c3ccccc23)NC(=O)[C@H](CCCNC(=N)N)NC(=O)[C@@H](Cc2ccccc2)NC(=O)[C@H](Cc2c[nH]cn2)NC1=O` with its measured MC4R selectivity vs MC3R. 30

Annotate the molecule CC(=O)N[C@@H](CCCNC(=N)N)C(=O)N[C@H]1CSSC[C@@H](C(N)=O)NC(=O)[C@@H](Cc2c[nH]c3ccccc23)NC(=O)[C@H](CCCNC(=N)N)NC(=O)[C@@H](Cc2ccccc2)NC(=O)[C@H](CCCNC(=N)N)NC(=O)[C@@H](C)NC1=O [CTX-1263] (Ac-RC[dA]R[dF]R[dW]C-NH2; disulfide 2-8) with its measured MC4R selectivity vs MC3R. 1.62

# next molecule below
Annotate the molecule CC(=O)N[C@@H](CCCNC(=N)N)C(=O)N[C@H]1CSSC[C@@H](C(N)=O)NC(=O)[C@@H](Cc2ccccc2)NC(=O)[C@H](CCCNC(=N)N)NC(=O)[C@@H](Cc2ccccc2)NC(=O)[C@H](CCCNC(=N)N)NC(=O)[C@@H](C)NC1=O [CTX-1257] (Ac-RC[dA]R[dF]R[dF]C-NH2; disulfide 2-8 (inferred)) with its measured MC4R selectivity vs MC3R. 0.06
